Assign pEC50 to each entry below.
System: Human immunodeficiency virus 1
test: Concentration required for antiviral activity in PBMC (human peripheral blood mononuclear cells) infected with HIV-1 strain LAV
Assay type: functional, organism-based
measurementContext: Human immunodeficiency virus 1, PBMC
pEC50: −log10 of the molar value.

State recorded pEC50 with Human immunodeficiency virus 1, entry Nc1ccn([C@@H]2CS[C@@H](CO)O2)c(=O)n1 , no comment. < 4.00

State recorded pEC50 with Human immunodeficiency virus 1, entry Nc1nc(=O)n([C@@H]2CS[C@@H](CO)O2)cc1Br , no comment. < 4.00

State recorded pEC50 with Human immunodeficiency virus 1, entry Nc1nc(=O)n([C@@H]2CS[C@@H](CO)O2)cc1Cl , no comment. < 4.00

State recorded pEC50 with Human immunodeficiency virus 1, entry O=c1[nH]c(=O)n([C@@H]2CS[C@@H](CO)O2)cc1Br , no comment. < 4.00

State recorded pEC50 with Human immunodeficiency virus 1, entry Cc1cn([C@@H]2CS[C@@H](CO)O2)c(=O)nc1N , no comment. < 4.00

State recorded pEC50 with Human immunodeficiency virus 1, entry O=c1[nH]c(=O)n([C@H]2CS[C@@H](CO)O2)cc1Cl , no comment. 4.52

State recorded pEC50 with Human immunodeficiency virus 1, entry OC[C@H]1O[C@H](n2cnc3c(Cl)ncnc32)CS1 , no comment. 5.57

State recorded pEC50 with Human immunodeficiency virus 1, entry Cc1cn([C@H]2C[C@H](N=[N+]=[N-])[C@@H](CO)O2)c(=O)[nH]c1=O , no comment. 8.40

Hey, just so you know, these numbers are from ChEMBL document CHEMBL1126792.
